Attribution: patent US6753317

target-system: µ-opioid receptor of the guinea pig ileum (GPI) (guinea pig)
assay-overview: cell-based or functional assay
Non-standard residues stand in square brackets, D forms with d. *: point of attachment. Dmt = Cc1cc(O)cc(C)c1C[C@H](N)C(=O)O; Tic = O=C(O)[C@@H]1Cc2ccccc2CN1; NHtBu = CC(C)(C)N*
Form field: GPI Ke (one value per entry).
test-readout: GPI Ke

binder	assay-value
H-[Dmt]-[Tic]-Ala-NHtBu (SMILES Cc1cc(O)cc(C)c1C[C@H](N)C(=O)N1Cc2ccccc2C[C@H]1C(=O)N[C@@H](C)C(=O)NC(C)(C)C) [H-Dmt-Tic-Ala-NH-tBu]	0.17 µM
{N,N‑dimethyl}-[Dmt]-[Tic]-NHtBu [N,N(Me)2-Dmt-Tic-NH-tBu]	0.3 µM
H-[Dmt]-[Tic]-NHMe [H-Dmt-Tic-NHMe]	1.15 µM
{N,N‑dimethyl}-[Dmt]-[Tic]-NHMe [N,N(Me)2-Dmt-Tic-NHMe]	0.39 µM
